Tested on: Pseudomonas aeruginosa ATCC 27853
procedure-details: Minimum Inhibitory Concentration (MIC) in LB media
Assay type: cell-based
measurement-parameters: Pseudomonas aeruginosa, ATCC27853
measurement-name: MIC (mg/L)
Give the value in mg/L but do not write mg/L after it.

Field: example entries. Status: answers known.
>>> recorded_number("CN1C(=O)CNc2cc(F)c(OCCNC[C@@H]3CN(c4cnc5c(n4)NC(=O)CS5)C(=O)O3)nc21")
1
>>> recorded_number("Cn1c(=O)ccc2ncc(OCCNC[C@H]3CN(c4cnc5c(n4)NC(=O)CS5)C(=O)O3)nc21 [Compound 2, reference compound]")
0.5
>>> recorded_number("Cn1c(=O)cnc2ccc(OCCNC[C@@H]3CN(c4cnc5c(n4)NC(=O)CS5)C(=O)O3)nc21")
0.5
>>> recorded_number("O=C(O)c1cn(C2CC2)c2cc(N3CCNCC3)c(F)cc2c1=O [Ciprofloxacin, reference compound]")
0.1
>>> recorded_number("CN1C(=O)CNc2ccc(OCCNC[C@H]3CN(c4cnc5c(n4)NC(=O)CS5)C(=O)O3)nc21")
0.5

// MIC lookup, compound = CN1C(=O)CNc2cc(F)c(OCCNC[C@H]3CN(c4cnc5c(n4)NC(=O)CS5)C(=O)O3)nc21 , result: 1

According to the records, this compound Cn1c(=O)ccc2ncc(OCCNC[C@@H]3CN(c4cnc5c(n4)NC(=O)CS5)C(=O)O3)nc21 displays MIC of 0.5

The origin of these recorded values is patent US20250136618A1.
